# Target or test system: caspase-3 (Homo sapiens, UniProt P42574)
# Construct: made in house
# Sequence (P42574 29-175 limits assumed): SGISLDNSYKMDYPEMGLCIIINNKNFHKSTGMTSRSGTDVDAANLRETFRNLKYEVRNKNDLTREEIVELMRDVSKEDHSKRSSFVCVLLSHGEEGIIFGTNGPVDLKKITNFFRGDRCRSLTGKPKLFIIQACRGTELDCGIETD
# Sequence (P42574 176-277 limits assumed): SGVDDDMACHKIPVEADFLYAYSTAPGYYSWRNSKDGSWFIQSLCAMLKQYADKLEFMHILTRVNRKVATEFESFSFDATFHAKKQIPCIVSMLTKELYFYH
# Assay remarks: Screening on caspases inhibiting activity (recombinant enzyme, fluorogenic AMC substrate)
# Type: biochemical
# Condition notes: Irreversible Inhibitors; read-out: Kobs/[I] for caspase-3
Test readout: kinact/KI (M⁻¹ s⁻¹)

In the examples that follow, each entry is paired with its recorded kinact/KI.
CC(C)[C@H](NC(=O)CCc1ccccc1)C1=NOC(Cc2ccccc2)(C(=O)N[C@@H](CC(=O)O)C(=O)COC(=O)c2c(Cl)cccc2Cl)C1 (mixture of isomers) [Compound 32] ... 114
CC1(C(=O)N[C@@H](CC(=O)O)C(=O)COC(=O)c2c(Cl)cccc2Cl)CC([C@H](CCC(=O)O)NC(=O)CCC(=O)O)=NO1 (single isomer, unassigned) [Compound 72] ... 176000
CCCC1(C(=O)N[C@@H](CC(=O)O)C(=O)COC(=O)c2c(Cl)cccc2Cl)CC([C@@H](NC(=O)CCC(=O)O)C(C)C)=NO1 (single isomer, unassigned) [Compound 76] ... 197000
CC(C)[C@H](NC(=O)c1ccc2ccccc2n1)C1=NOC(Cc2ccccc2)(C(=O)N[C@@H](CC(=O)O)C(=O)COC(=O)c2c(Cl)cccc2Cl)C1 (stereo partly shown) [Compound 42mp] ... 160
CC(C)[C@H](NC(=O)c1cccc2ccccc12)C1=NOC(Cc2ccccc2)(C(=O)N[C@@H](CC(=O)O)C(=O)COC(=O)c2c(Cl)cccc2Cl)C1 (stereo partly shown) [Compound 33mp] ... 500

P = CC(C)[C@H](NC(=O)c1cccc2ccccc12)C1=NOC(Cc2ccccc2)(C(=O)N[C@@H](CC(=O)O)C(=O)COC(=O)c2c(F)cccc2F)C1 (stereo partly shown) [Compound 58]
Q = CCCCC1(C(=O)N[C@@H](CC(=O)O)C(=O)COC(=O)c2c(Cl)cccc2Cl)CC([C@@H](NC(=O)CCC(=O)O)C(C)C)=NO1 (single isomer, unassigned) [Compound 80]
Query: Between these two entries, P and Q , state which has the higher kinact/KI. Selection: enter the item's label.
Result: Q
(Q: 1.14e+06 M⁻¹ s⁻¹, P: 371 M⁻¹ s⁻¹)
